assay-target: MAPK8 (Homo sapiens, UniProt P45983)
Sequence (P45983 whole entry): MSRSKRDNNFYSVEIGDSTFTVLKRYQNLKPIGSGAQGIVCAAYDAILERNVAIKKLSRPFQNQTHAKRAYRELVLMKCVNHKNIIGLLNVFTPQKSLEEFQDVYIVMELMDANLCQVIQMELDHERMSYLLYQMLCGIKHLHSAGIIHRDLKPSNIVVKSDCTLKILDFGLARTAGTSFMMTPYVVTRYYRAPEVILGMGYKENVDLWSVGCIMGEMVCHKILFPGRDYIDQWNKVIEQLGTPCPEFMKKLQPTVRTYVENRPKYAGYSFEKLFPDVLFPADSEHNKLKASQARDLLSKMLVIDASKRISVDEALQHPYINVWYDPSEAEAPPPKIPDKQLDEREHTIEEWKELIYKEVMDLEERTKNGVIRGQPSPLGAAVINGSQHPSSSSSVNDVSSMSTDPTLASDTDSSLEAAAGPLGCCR
protocol: biochemical
Set-up: species or system HEK293/K-562/placenta mixed human extract; Kinobeads chemoproteomic competition binding, quantified by TMT LC-MS/MS, dose response up to 20 uM
experimental-endpoint: IC50

Prompt: # IC50 lookup, item COc1nc(N[C@H]2CC[C@H](NS(=O)(=O)CC(C)C)CC2)nc2[nH]nc(N3CCOC[C@H]3C)c12
Completion: ≥ 20 µM

###

assay-target: CDK7 (Homo sapiens)
Sequence (P50613 whole entry): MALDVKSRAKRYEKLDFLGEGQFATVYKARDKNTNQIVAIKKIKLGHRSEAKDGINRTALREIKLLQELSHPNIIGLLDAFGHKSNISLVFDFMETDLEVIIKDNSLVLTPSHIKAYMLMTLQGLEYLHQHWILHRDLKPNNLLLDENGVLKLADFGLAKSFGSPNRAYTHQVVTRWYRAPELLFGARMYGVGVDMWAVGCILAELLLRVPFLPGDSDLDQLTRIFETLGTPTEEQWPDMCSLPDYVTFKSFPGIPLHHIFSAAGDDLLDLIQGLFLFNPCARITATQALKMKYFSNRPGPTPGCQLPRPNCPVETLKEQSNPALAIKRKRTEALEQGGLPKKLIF
protocol: biochemical
Parameters: species or system HEK293/K-562/placenta mixed human extract; Kinobeads chemoproteomic competition binding, quantified by TMT LC-MS/MS, dose response up to 20 uM
experimental-endpoint: IC50 (µM)
Express it in µM; write the number only.

Prompt: What does the data say about its IC50? Entry: COc1nc(N[C@H]2CC[C@H](NS(=O)(=O)CC(C)C)CC2)nc2[nH]nc(N3CCOC[C@H]3C)c12
Completion: 2.5
